Experiment: FRG1 promoter luciferase signal modulators, primary screen, FRG1 inhibition for FSHD, cell-based, C2C12 myotubes, firefly/Renilla luciferase, luminescence (AID 1084)
Details: higher = more signal, called active from +8 up or from −8 down
Hi there, I'd appreciate the recorded z-score for every entry that follows.
One number for each entry.

Known z-score results, listed for orientation:
- O=C1NC(=O)C2C1C=CC(C(O)c1c(F)cccc1Cl)N2Nc1ccc(Cl)cc1Cl (stereo unspecified): -1.03
- COCCOC(=O)N1C(=O)[C@@]2(c3cc(C#CC4=CCCCC4)ccc31)[C@H](c1ccc(O)cc1)N1[C@H](c3ccccc3)[C@H](c3ccccc3)OC(=O)[C@H]1[C@@H]2C(=O)N1CCN(c2ncccn2)CC1: 0.214
- C=CCC(OC(C)=O)[C@@H]1[C@@H](N(Cc2cc3ccccc3o2)C(=O)Cc2ccc(F)cc2)c2cc(OCCCO)ccc2N1C(=O)c1ccc2ccccc2c1 (stereo partly specified): -1.92
- Cc1cc(C)cc(N2C(=O)CSC2c2cccc([N+](=O)[O-])c2)c1 (stereo unspecified): 1.07
- COc1cc2c(cc1OC)CN(C(=O)[C@@H]1[C@H]3C(=O)O[C@H](c4ccccc4)[C@H](c4ccccc4)N3[C@H](c3ccc(OCCO)cc3)[C@@]13C(=O)Nc1ccccc13)CC2: 2.03

# per-item lookup of z-score; items listed below
1. C=CCOC(=O)[C@H]1[C@@H]2C(=O)O[C@@H](c3ccccc3)[C@@H](c3ccccc3)N2[C@@H](c2ccc(OCCOC(=O)[C@@H]3C[C@@H]4C(=O)N[C@@H](CCCCNC(C)=O)C(=O)N4[C@@H]3c3ccc(O)cc3)cc2)[C@]12C(=O)Nc1ccc(I)cc12
2. CN(C)C(=O)[C@@]1(Cc2ccccc2CN=[N+]=[N-])N=C(c2ccc(OCCCO)cc2)O[C@H]1c1ccccc1CN=[N+]=[N-]

Key:
1: -0.553; 2: -4.01

====

Record form. Attribute: z-score. Fill in for each entry.
Biological target: Homeobox protein Hox-A13 (Mus musculus) (UniProt Q62424)
Sequence (Q62424 whole entry, looked up): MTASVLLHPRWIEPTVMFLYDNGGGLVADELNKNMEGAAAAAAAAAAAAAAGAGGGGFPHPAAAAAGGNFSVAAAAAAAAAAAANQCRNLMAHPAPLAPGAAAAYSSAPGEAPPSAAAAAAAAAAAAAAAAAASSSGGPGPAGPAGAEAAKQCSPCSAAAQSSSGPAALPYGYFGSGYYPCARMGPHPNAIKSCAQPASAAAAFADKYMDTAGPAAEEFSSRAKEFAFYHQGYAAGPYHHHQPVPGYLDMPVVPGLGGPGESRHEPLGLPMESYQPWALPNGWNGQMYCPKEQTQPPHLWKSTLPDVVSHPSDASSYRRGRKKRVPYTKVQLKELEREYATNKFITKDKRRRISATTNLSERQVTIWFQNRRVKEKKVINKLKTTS
Experiment: inhibitors of HoxA13-DNA binding, primary screen, biochemical, fluorescence polarization, labeled oligonucleotide (AID 1185)
Conditions: 15 min, higher = more signal, called active from +8 up or from −8 down
One number for each entry.

- O=C1O[C@H](c2ccccc2)[C@H](c2ccccc2)N2[C@H]1[C@@H](C(=O)Nc1nc3ccccc3s1)[C@]1(C(=O)Nc3ccc(C#CCCO)cc31)[C@H]2c1ccc(O)cc1: -1.02

I would be grateful if you could provide z-score for each of the following entries.
1. O=C(NCc1ccccc1)[C@@H]1c2ccccc2C(=O)N(Cc2ccccc2C(F)(F)F)[C@H]1c1ccc(CO)cc1
2. Cc1ccccc1C(O)C1C=CC2C(=O)N(C)C(=O)C2N1N(c1ccccc1)c1ccccc1 (stereo not drawn)

Key:
1. -3.17
2. -1.17

====

System: Inhibin beta A chain (activin A)
Test: INHBA (activin A) binders on microarrays, primary screen, biochemical, small-molecule microarray, 635 nm fluorescence scan (AID 1107);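 note: mouse activin A protein probed at 4.33 µg/mL on printed slides; score merges bound-protein fluorescence near 667 nm with spot signal-to-noise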
Conditions: small-molecule microarray binding, higher = more signal
For each of the molecules below, state its composite z-score.
Give bare numbers.

Worked cases, composite z-score given:
* N#Cc1ccc(NN2C(C(O)c3ccc(F)cc3)C=CC3C(=O)N(c4ccccc4)C(=O)C32)cc1 (stereo unspecified) | 0.856
* COc1ccc(CCNC(=O)[C@@H]2c3ccccc3C(=O)N(Cc3cc(C(F)(F)F)cc(C(F)(F)F)c3)[C@H]2c2ccc(CO)cc2)cc1 | -0.167
* CC(=O)c1ccc(C(O)C2C=CC3C(=O)N(c4ccccc4)C(=O)C3N2Nc2ccc(C#N)cc2)cc1 (stereo unspecified) | 0.443
* C=C(/C(=C/C[C@H](OC(C)=O)c1ccccc1OCCO)c1cc(C(=O)OC)ccc1OC)C(C)C | 0.721
* CC1=C([C@H](O)CCc2ccccc2)[C@H](CO)[C@@H]2C(=O)N(C)C(=O)[C@@H]2C1 | 0.162
* C[C@@H]1NC(=O)[C@@]23C(=O)N[C@@H](Cc4ccccc4)C2[C@H](C)[C@@]2(C)O[C@H]2C3/C=C/C/C=C\CNC(=O)[C@@H]2CCCN2C1=O (stereo partly specified) | 1.35
* C=CCNC(=O)[C@H]1[C@@H]2C(=O)O[C@@H](c3ccccc3)[C@@H](c3ccccc3)N2[C@@H](c2ccc(O)cc2)[C@]12C(=O)Nc1ccc(C#CC3(O)CCCCCC3)cc12 | 0.697
* Cc1ccccc1C(O)C1C=CC2C(=O)N(C)C(=O)C2N1N(c1ccccc1)c1ccccc1 (stereo unspecified) | 1.33
* CCOC(=O)C[C@H]1[C@H](OC(=O)c2ccccc2-c2ccccc2)[C@@H](NC(=O)c2ccc(-c3ccccc3)cc2)c2cc(OCCCO)ccc2N1C(=O)c1ccc2ccccc2n1 | 0.392
* CCOC(=O)C[C@H]1[C@H](OC(=O)Cc2ccc3c(c2)OCO3)[C@@H](NC(=O)Cc2ccc(OC)cc2)c2cc(OCCCO)ccc2N1C(=O)c1ccc2ccccc2n1 | 0.825

# per-item lookup of composite z-score; items listed below
1. COc1ccc(NC(=O)O[C@H]2[C@H](OC(=O)Nc3ccccc3)[C@H](OC(=O)Nc3ccccc3)[C@@H](OC)O[C@@H]2CO)cc1
2. COC(=O)c1c(CC[C@@H](CO)NC(=O)N2CCC[C@H]2Cn2cc(Cc3ccccc3)nn2)oc(C(C)=O)c1C(=O)OC
3. COC(=O)[C@@]1(Cc2ccccc2)[C@H]2c3cc(C(=O)N(C)C)n(CCc4ccc(O)c(OC)c4)c3C[C@H]2CN1C(=O)c1ccccc1

Key:
0.593
0.268
-0.0861
